From: PubChem BioAssay

In this section we review reported nuclei count values for a set of molecules.
# Test Description: reduction of polyQ htt aggregates in cells – imaging, exon1htt(103Q)mCFP cells, high-content imaging, primary screen (AID 483);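 further: compound exposure lasted 3 days before fixation; percent of the per-plate median nuclei count of sample wells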
# Condition Label: exon1htt(103Q)mCFP cell line, aggregate imaging, at 2 µM; measured here: cell count, toxicity
Please respond with the number in % and leave the unit unwritten.

Molecule | Unit Tag | nuclei count
c1ccc(CCc2nn3c(Cn4cnc5ccccc54)nnc3s2)cc1 | % | 100

Exercise: Annotate the molecule `COc1cccc(OC)c1C(=O)n1nc(C)cc1C` with its measured nuclei count.
Key: 99.8

Exercise: For the molecule CC(C)[C@H](NC(=O)[C@@H]1CSCN1C(=O)OC(C)(C)C)C(=O)NCC1CCC(C(=O)O)CC1 (stereo partly specified) , give its reported nuclei count.
Key: 92.5

Exercise: Report measured nuclei count; entry is `CCCc1cc(N2CCCC2)n2nc(C)c(-c3ccccc3)c2n1`
Key: 112

Exercise: Query nuclei count for `O=C(NCc1ccccc1)C1CCN(S(=O)(=O)N2CCCCCC2)CC1`
Key: 106

Exercise: Report nuclei count for `C=CCSc1nc2c(c(=O)[nH]c(=O)n2C)n1CC`
Key: 36.2

----------
The reader will find reported inhibition values listed item by item below.
# Test Description: endothelial E-selectin expression blockers – imaging, HUVEC, immunofluorescence, MLSMR starter and 10KST1 sets, primary screen (AID 487);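 further: signal is fraction of cell area covered by stained E-selectin grains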
# Condition Label: HUVEC TNFalpha-induced E-selectin immunofluorescence imaging, at 2 µM; stronger effect = higher value
# output: bare number, implied unit %

Solved cases below.
Molecule | Measurement
Cc1ccc(NC(=O)CC2Nc3ccccc3NC2=O)cc1Cl (stereo unspecified) | -45.4
O=C(Nc1ccccc1)c1cccnc1N1CCOCC1 | -36.4
CC(C)N(Cc1nc(-c2ccccc2)no1)C(=O)CCCN1C(=O)c2ccccc2C1=O | -78.3
Cc1cc(=O)oc2cc(OCC(=O)OCc3nnc(-c4ccccc4)o3)ccc12 | -10.9
CCOC(=O)Cc1csc(NC(=O)c2cccc(OC)c2)n1 | -15.2
CC(C)=CC(=O)OCC(=O)NC(=O)NC(C)(C)C | 3.9
CCOC(=O)c1ccc(NC(=O)CC2SC(=NC)N(C)C2=O)cc1 (stereo unspecified) | -14.5
Cn1c(SCC(=O)Nc2ccc(F)cc2)nnc1-c1cccnc1 | -57.8

Exercise: Tell me measured inhibition for `CCc1nnc(NC(=O)CSc2nnc(-c3ccccc3OC)n2-c2ccccc2)s1` please.
Key: -163

Exercise: Quickly give me recorded inhibition for CC(CC(=O)NCc1ccccc1)C1CCCO1 (stereo unspecified)
Key: -112

Exercise: Look up and state reported inhibition for `COc1ccc(S(=O)(=O)Cc2ccc(C(=O)N3CCN(c4ccccc4)CC3)o2)cc1`
Key: -89.5

----------
Overview of reported cell count across a group of compounds:
# Test Description: inhibitors of TNFa-induced NFkB p65 translocation, primary screen, imaging, HUVEC, MLSMR starter and 10KST1 sets (AID 438);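 further: compound added about 3h40 before a 20 min TNFalpha stimulation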
# Condition Label: HUVEC TNFa-induced p65 nuclear translocation; measured here: nuclei count (cytotoxicity indicator), at 2.08 µM
Give the figure only, with no unit attached.

Reference set, count: 2
Structure | cell count
Cn1c(N2CCC(C(N)=O)CC2)nc2c1c(=O)n(Cc1ccc(Br)cc1)c(=O)n2C | 537
COc1ccc(S(=O)(=O)NCc2ccc3c(c2)OCO3)cc1C(=O)O | 379

Exercise: Specify cell count for `COc1ccccc1N1CCN(C(=O)C2CCN(S(=O)(=O)c3ccc(F)cc3)CC2)CC1` and stop.
Key: 676

Exercise: Report cell count, nothing else, for this compound: `N#CC1=C(N)SC(N)=C(C#N)C1CCc1ccccc1`
Key: 300

Exercise: Using the record for `Cc1ncc(CO)c2c1OC(C)(C)OC2` , state its measured cell count.
Key: 373

Exercise: Indicate the recorded cell count value for this compound: `CCOC(=O)N1CCN(C(=O)CN(Cc2ccccc2)S(=O)(=O)c2ccc(OC)c(C)c2)CC1`
Key: 320
